target: Metabotropic glutamate receptor 7 (Rattus norvegicus); assay: Metabotropic glutamate receptor 7 agonist activity to influence forskolin stimulated c-AMP formation in rat non neuronal cells; format: functional, cell-based
Sequence (P35400 whole entry): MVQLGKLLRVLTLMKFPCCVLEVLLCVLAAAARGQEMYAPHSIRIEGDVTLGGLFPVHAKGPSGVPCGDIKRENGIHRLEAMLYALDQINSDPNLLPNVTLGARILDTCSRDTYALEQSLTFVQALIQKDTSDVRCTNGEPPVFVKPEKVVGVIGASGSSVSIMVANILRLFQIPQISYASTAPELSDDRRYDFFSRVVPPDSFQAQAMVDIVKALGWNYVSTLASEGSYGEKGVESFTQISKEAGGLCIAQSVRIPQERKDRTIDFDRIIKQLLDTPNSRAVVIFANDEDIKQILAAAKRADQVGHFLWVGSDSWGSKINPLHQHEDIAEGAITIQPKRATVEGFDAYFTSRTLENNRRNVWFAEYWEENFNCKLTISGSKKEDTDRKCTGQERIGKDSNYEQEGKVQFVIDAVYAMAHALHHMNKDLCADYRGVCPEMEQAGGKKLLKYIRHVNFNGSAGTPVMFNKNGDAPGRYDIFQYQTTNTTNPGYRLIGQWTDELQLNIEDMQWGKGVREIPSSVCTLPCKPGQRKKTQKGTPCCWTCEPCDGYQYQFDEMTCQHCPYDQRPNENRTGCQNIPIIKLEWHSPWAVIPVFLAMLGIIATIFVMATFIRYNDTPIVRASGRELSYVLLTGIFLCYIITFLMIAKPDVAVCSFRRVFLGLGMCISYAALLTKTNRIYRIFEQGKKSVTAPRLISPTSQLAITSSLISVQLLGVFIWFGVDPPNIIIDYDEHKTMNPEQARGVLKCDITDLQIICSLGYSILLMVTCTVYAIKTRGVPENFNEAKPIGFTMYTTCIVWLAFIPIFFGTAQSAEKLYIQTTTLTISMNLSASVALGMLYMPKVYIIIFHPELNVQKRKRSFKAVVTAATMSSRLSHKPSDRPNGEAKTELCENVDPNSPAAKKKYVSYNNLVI
pEC50 values for the compounds below.
When answering, recall that pEC50 equals minus log10 of the concentration in mol/L, and write that number alone.

[[record]]
compound = "N[C@@H](CCP(=O)(O)O)C(=O)O"
observation_type = "pEC50"
value = 3.76

[[record]]
compound = "NC(C(=O)O)c1ccc(P(=O)(O)O)cc1 (racemic)"
observation_type = "pEC50"
value = 3.73


Request: For N[C@H](C(=O)O)[C@H]1C[C@@H]1C(=O)O , what is its reported pEC50?
Response: 4.33

---

target: Metabotropic glutamate receptor 8 (Rattus norvegicus); assay: Metabotropic glutamate receptor 8 agonist activity against forskolin stimulated c-AMP formation in rat non neuronal cells; assay type: functional, cell-based
Sequence (P70579 whole entry): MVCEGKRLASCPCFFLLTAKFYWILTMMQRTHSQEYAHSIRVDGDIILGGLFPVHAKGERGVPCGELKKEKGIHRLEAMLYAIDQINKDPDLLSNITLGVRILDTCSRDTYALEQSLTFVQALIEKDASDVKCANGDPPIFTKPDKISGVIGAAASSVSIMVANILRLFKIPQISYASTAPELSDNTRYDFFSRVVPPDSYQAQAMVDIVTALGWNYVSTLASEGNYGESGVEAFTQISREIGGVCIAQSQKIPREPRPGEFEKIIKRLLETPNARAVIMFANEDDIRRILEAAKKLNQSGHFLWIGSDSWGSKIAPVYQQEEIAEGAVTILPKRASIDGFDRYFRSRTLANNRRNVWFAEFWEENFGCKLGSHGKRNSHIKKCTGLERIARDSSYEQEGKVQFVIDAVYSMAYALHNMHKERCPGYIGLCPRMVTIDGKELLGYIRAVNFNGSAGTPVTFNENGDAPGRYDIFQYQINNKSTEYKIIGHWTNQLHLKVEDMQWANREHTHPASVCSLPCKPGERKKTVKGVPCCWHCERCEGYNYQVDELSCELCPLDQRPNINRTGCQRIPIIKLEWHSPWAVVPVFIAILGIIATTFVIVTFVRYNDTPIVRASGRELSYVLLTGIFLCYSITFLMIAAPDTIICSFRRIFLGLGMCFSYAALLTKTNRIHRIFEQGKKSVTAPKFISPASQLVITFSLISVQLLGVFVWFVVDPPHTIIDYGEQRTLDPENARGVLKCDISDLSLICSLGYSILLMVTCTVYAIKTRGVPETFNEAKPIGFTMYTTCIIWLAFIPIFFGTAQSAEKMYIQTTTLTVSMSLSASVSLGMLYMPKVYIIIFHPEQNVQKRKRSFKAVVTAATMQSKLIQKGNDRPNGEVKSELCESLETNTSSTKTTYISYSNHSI
OBSERVATION_TYPE: EC50 (nM)
Return type: number; implicit unit nM.

[[record]]
molecule = "N[C@H](C(=O)O)c1ccc(C(=O)O)c(C(=O)O)c1"
tested_system = "Metabotropic glutamate receptor 8 (Rattus norvegicus)"
unit = "nM"
value = 31


Request: For N[C@@H](CCP(=O)(O)O)C(=O)O , what is its reported EC50?
Response: 60

Request: Another molecule: N[C@H](C(=O)O)[C@H]1C[C@@H]1C(=O)O
Response: 400

Request: Another molecule: NC(C(=O)O)c1ccc(P(=O)(O)O)cc1 (racemic)
Response: 210

Request: Another molecule: C[C@H]1[C@H](C(=O)O)[C@H]1[C@H](N)C(=O)O
Response: 1320

---

target: UniProt:P31421; assay: Metabotropic glutamate receptor 2 agonist activity against forskolin stimulated c-AMP formation in rat non neuronal cells
Sequence (P31421 whole entry): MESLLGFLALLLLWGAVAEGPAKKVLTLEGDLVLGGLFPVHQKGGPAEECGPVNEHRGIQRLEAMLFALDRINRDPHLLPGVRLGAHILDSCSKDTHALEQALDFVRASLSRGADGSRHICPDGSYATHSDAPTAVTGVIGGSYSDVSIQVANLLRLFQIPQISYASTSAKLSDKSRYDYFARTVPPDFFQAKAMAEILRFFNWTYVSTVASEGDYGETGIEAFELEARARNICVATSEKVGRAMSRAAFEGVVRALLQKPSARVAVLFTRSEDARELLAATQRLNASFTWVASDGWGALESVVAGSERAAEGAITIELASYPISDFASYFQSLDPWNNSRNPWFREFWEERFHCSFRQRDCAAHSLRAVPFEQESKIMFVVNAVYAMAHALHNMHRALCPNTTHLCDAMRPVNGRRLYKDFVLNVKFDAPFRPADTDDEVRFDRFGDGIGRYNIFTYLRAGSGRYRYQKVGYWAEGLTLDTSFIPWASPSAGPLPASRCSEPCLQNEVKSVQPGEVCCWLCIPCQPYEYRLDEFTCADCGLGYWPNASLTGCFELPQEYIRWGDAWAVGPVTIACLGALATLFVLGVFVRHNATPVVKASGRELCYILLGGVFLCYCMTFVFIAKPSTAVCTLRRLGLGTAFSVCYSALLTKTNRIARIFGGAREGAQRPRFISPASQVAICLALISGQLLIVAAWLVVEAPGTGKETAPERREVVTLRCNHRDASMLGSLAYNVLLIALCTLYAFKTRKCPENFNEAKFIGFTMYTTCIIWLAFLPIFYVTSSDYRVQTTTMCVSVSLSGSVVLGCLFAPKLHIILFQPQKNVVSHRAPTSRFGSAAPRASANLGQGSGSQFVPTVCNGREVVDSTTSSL
pEC50 values for the molecules below.
When answering, recall that pEC50 equals minus log10 of the concentration in mol/L, and write that number alone.

[[record]]
chemical_string = "N[C@H](C(=O)O)[C@H]1[C@@H](CC(=O)O)[C@@H]1C(=O)O"
tested_system = "UniProt:P31421"
observation_type = "pEC50"
value = 7.00


Request: For C[C@H]1[C@H](C(=O)O)[C@H]1[C@H](N)C(=O)O , what is its reported pEC50?
Response: 8.10

Request: Another molecule: N[C@H](C(=O)O)[C@H]1[C@H](CC(=O)O)[C@@H]1C(=O)O
Response: 6.52

Request: Another molecule: N[C@H](C(=O)O)[C@@H]1[C@@H](C(=O)O)C1(F)F
Response: 7.05

Request: Another molecule: N[C@@H](CCP(=O)(O)O)C(=O)O
Response: 3.35

Request: Another molecule: N[C@H](C(=O)O)[C@H]1C[C@@H]1C(=O)O
Response: 6.52

---

target: Metabotropic glutamate receptor 4 (Rattus norvegicus); assay: Metabotropic glutamate receptor 4 antagonist activity to influence forskolin stimulated c-AMP formation in rat non neuronal cells; assay type: functional, cell-based
Sequence (P31423 whole entry): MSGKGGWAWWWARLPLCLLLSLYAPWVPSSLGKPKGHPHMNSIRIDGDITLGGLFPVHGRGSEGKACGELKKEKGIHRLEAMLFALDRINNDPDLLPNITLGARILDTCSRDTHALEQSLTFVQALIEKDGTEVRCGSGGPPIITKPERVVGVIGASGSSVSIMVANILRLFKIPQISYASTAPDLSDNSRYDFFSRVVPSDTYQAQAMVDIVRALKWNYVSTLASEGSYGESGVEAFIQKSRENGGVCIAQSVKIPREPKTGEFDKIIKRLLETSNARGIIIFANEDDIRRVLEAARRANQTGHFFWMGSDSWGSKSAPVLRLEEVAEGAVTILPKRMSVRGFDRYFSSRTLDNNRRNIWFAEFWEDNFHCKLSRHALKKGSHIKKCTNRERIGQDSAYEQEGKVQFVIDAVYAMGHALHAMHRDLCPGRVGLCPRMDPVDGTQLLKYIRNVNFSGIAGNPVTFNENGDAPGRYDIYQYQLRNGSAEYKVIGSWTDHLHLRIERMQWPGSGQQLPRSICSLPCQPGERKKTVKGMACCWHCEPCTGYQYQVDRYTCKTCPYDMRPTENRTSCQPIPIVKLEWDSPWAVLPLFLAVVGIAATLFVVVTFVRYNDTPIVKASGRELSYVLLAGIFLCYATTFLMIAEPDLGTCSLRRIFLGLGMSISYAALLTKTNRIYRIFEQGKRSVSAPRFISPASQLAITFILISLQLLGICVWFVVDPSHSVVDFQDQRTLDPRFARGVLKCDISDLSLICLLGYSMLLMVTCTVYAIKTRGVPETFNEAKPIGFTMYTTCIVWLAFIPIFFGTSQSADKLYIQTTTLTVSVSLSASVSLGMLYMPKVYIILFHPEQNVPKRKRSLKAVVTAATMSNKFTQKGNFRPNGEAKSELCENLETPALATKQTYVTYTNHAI
OBSERVATION_TYPE: pEC50
When answering, recall that pEC50 equals minus log10 of the concentration in mol/L, and write that number alone.

Request: For N[C@H](C(=O)O)C1[C@@H](C(=O)O)[C@@H]1C(=O)O (stereo partly specified) , what is its reported pEC50?
Response: 4.64

---

molecular target: Metabotropic glutamate receptor 5 (Rattus norvegicus, UniProt P31424); test: Metabotropic glutamate receptor 5 agonist activity as basal [3H]- IP formation in rat
Sequence (P31424 whole entry): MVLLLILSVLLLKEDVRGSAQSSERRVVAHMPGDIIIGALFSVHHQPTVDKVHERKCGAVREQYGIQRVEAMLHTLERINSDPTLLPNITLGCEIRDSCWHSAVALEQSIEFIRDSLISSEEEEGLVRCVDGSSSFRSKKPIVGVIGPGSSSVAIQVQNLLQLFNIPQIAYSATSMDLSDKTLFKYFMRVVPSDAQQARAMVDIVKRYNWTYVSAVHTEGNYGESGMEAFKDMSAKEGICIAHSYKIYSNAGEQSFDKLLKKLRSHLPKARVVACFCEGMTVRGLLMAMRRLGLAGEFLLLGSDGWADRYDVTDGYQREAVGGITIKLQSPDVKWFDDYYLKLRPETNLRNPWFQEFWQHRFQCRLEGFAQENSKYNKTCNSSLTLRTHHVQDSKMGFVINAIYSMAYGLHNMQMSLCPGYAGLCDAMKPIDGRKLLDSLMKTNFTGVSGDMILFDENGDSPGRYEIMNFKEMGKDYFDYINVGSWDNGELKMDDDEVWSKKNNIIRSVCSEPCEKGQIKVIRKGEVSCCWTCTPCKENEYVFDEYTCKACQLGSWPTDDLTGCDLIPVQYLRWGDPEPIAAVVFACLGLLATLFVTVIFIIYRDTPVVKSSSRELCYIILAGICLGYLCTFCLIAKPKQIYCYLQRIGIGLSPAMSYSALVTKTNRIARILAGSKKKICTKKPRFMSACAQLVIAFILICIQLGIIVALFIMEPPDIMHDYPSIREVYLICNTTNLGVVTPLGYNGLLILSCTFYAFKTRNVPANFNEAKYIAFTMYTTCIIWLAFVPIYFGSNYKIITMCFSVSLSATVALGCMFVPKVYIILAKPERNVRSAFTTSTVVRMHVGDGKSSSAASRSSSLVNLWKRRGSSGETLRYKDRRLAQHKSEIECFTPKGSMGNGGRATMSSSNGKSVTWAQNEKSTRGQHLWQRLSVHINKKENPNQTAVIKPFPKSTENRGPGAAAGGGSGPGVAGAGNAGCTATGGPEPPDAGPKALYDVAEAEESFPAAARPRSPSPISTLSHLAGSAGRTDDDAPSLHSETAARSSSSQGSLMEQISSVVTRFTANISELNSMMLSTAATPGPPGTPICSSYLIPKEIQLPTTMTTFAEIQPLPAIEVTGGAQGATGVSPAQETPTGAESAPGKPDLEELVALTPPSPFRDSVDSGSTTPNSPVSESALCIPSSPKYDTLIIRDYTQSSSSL
EC50 values for the molecules below.

[[record]]
molecule = "N[C@H](C(=O)O)[C@H]1[C@H](CC(=O)O)[C@@H]1C(=O)O"
value = "> 100 µM"


Request: For N[C@H](C(=O)O)C1[C@@H](C(=O)O)[C@@H]1C(=O)O (stereo partly drawn) , what is its reported EC50?
Response: 389 µM

Request: Another molecule: N[C@@H](CCP(=O)(O)O)C(=O)O
Response: > 100 µM

Request: Another molecule: N[C@H](C(=O)O)[C@H]1C[C@@H]1C(=O)O
Response: 17 µM

Request: Another molecule: N[C@H](C(=O)O)[C@H]1[C@@H](CC(=O)O)[C@@H]1C(=O)O
Response: > 100 µM

Request: Another molecule: N[C@H](C(=O)O)c1ccc(C(=O)O)c(C(=O)O)c1
Response: > 100 µM

Request: Another molecule: NC(C(=O)O)c1ccc(P(=O)(O)O)cc1 (racemic)
Response: > 500 µM

Request: Another molecule: C[C@H]1[C@H](C(=O)O)[C@H]1[C@H](N)C(=O)O
Response: > 100 µM

Entry source: ChEMBL document CHEMBL1148386
